Attribution: patent US6566355B1

Overview of reported MIC across a group of molecules:
# System: Citrobacter freundii
# Assay Info: MIC in vitro of a 1:4 combination of ceftriaxone with a compound of formula I (test D)
# Assay type: cell-based
# Condition Parameters: 1:4 combination of ceftriaxone with the compound
Respond numerically; units are µg/mL and should not be typed.

Below, 3 molecules whose answers are already recorded.
{"Molecule": "O=C(NC1CCS(=O)(=O)C1)N1CC[C@@H]2[C@H]1C(=O)N2S(=O)(=O)[O-].[Na+] (mixture of isomers) [17(x)]", "System Under Test": "Citrobacter freundii", "Units Of Measure": "µg/mL", "MIC": 2}
{"Molecule": "Cn1cccc1/C=C/C(=O)N1CC[C@@H]2[C@H]1C(=O)N2S(=O)(=O)[O-].[Na+] [23(c)]", "System Under Test": "Citrobacter freundii", "Units Of Measure": "µg/mL", "MIC": 8}
{"Molecule": "N[C@@H](C(=O)N1CC[C@@H]2[C@H]1C(=O)N2S(=O)(=O)O)c1ccc(O)cc1 [6(d)]", "System Under Test": "Citrobacter freundii", "Units Of Measure": "µg/mL", "MIC": 2}

Tell us which MIC value is on record for N[C@H](C(=O)N1CC[C@@H]2[C@H]1C(=O)N2S(=O)(=O)O)c1ccccc1 [4(d)]
2
